Listing of recorded kinase still bound, per cent of control by entry.
- TESTED TARGET: EPHA4 (human)
- ASSAY PROCEDURE: KINOMEscan competition binding
- CONDITION SUMMARY: compound 10.0 µM
REPORTED METRIC: kinase still bound, per cent of control (%)

>>> print(df.to_string())
                                smiles_data  observed
0  COC(=O)Nc1ccc(-c2nc(N3CCOCC3)c3cnn(C4CCN(C(=O)OC)CC4)c3n2)cc1        88
1  COc1ccc(-c2ccc3c(N4CCOCC4)nc(N4C[C@@H](C)O[C@@H](C)C4)nc3n2)cc1CO       100
2  CC(C)n1nc(-c2cc3cc(O)ccc3[nH]2)c2c(N)ncnc21        36
3  CCC(=O)N1CCN(c2ccc(-n3c(=O)ccc4cnc5ccc(-c6cnc7ccccc7c6)cc5c43)cc2C(F)(F)F)CC1        90

----------
- TESTED TARGET: PRKCH (human) (UniProt P24723)
- Sequence (P24723 whole entry, looked up): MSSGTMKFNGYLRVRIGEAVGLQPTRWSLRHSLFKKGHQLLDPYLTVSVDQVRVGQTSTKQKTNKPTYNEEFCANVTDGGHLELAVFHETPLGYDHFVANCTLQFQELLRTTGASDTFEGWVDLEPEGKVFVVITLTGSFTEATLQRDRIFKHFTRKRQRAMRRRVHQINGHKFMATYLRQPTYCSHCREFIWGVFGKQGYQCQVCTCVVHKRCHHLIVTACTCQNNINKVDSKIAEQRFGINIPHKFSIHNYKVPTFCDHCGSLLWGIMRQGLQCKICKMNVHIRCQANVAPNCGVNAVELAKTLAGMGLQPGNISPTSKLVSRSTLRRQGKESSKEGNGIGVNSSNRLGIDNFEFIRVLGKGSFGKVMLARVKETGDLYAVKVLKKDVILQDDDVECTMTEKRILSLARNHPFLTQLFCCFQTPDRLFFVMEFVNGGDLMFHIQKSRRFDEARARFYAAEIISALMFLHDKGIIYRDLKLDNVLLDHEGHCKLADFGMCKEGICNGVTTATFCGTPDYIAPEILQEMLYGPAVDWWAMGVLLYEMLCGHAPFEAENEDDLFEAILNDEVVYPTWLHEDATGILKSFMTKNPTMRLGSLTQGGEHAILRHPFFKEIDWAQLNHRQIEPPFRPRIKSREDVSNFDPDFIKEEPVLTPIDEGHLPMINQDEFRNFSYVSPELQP
- ASSAY PROCEDURE: KINOMEscan competition binding
- CONDITION SUMMARY: compound 10.0 µM
REPORTED METRIC: kinase still bound, per cent of control (%)

In [3]: df
Out[3]:
                                smiles_data  observed
0  COc1ccc(-c2ccc3c(N4CCOCC4)nc(N4C[C@@H](C)O[C@@H](C)C4)nc3n2)cc1CO       100
1  COC(=O)Nc1ccc(-c2nc(N3CCOCC3)c3cnn(C4CCN(C(=O)OC)CC4)c3n2)cc1        92
2  CC(C)n1nc(-c2cc3cc(O)ccc3[nH]2)c2c(N)ncnc21        10
3  CCC(=O)N1CCN(c2ccc(-n3c(=O)ccc4cnc5ccc(-c6cnc7ccccc7c6)cc5c43)cc2C(F)(F)F)CC1        92

----------
- TESTED TARGET: PAK2 (human) (UniProt Q13177)
- Sequence (Q13177 whole entry, looked up): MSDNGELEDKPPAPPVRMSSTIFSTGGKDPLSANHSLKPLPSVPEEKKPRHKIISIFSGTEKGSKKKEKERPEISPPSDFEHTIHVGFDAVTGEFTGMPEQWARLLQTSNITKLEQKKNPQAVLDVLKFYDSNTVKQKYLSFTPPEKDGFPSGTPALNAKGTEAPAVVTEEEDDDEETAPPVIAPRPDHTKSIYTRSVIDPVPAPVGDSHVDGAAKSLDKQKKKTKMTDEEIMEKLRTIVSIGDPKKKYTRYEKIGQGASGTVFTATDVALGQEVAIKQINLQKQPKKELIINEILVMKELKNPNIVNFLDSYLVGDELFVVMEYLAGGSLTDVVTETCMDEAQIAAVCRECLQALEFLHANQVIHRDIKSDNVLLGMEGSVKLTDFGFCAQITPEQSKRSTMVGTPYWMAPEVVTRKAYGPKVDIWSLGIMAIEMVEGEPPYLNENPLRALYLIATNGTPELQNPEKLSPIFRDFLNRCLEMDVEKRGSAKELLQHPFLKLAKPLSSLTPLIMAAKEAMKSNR
- ASSAY PROCEDURE: KINOMEscan competition binding
- CONDITION SUMMARY: compound 10.0 µM
kinase still bound, per cent of control overview
REPORTED METRIC: kinase still bound, per cent of control (%)

>>> df
                                smiles_data                  tested_target                          reported_metric  unit_abbrev  observed
0  CCC(=O)N1CCN(c2ccc(-n3c(=O)ccc4cnc5ccc(-c6cnc7ccccc7c6)cc5c43)cc2C(F)(F)F)CC1  PAK2 (human) (UniProt Q13177)  kinase still bound, per cent of control            %       100
1  CC(C)n1nc(-c2cc3cc(O)ccc3[nH]2)c2c(N)ncnc21  PAK2 (human) (UniProt Q13177)  kinase still bound, per cent of control            %        31
2  COC(=O)Nc1ccc(-c2nc(N3CCOCC3)c3cnn(C4CCN(C(=O)OC)CC4)c3n2)cc1  PAK2 (human) (UniProt Q13177)  kinase still bound, per cent of control            %        91
3  COc1ccc(-c2ccc3c(N4CCOCC4)nc(N4C[C@@H](C)O[C@@H](C)C4)nc3n2)cc1CO  PAK2 (human) (UniProt Q13177)  kinase still bound, per cent of control            %        91

These data points were gathered from the kinase profiling compilation of Christmann-Franck et al. (2016).
